# Test system: HT29 colon
# experiment-description: NCI-60 one-dose screen, 48 h (100 = growth as untreated, 0 = no growth, -100 = all killed)
# details: 10 µM unless noted
About 83,000 compounds went through this panel and 20% of them were active in at least one assay; those are over-represented in the sample as a whole.
Returns: string. Value is satisfied if measured growth is below 70%, and not satisfied if it is greater than or equal to it.

Say whether its growth is strictly beneath 70%. Entry: CN(C)CCNC(=O)n1cc(-c2ccncc2)c(-c2cc(O)cc(Cl)c2)n1
not satisfied

Say whether its growth is strictly beneath 70%. Entry: COc1cc2ncnc(Nc3ccc(S(=O)(=O)Nc4cc(C)on4)cc3)c2cc1OCCCN1CCN(c2ccc([N+](=O)[O-])cc2)CC1
not satisfied

Say whether its growth is strictly beneath 70%. Entry: CSc1nc(N)c2[nH]c(-c3cc4ccccc4[nH]c3=O)nc2n1
not satisfied

Say whether its growth is strictly beneath 70%. Entry: O=C(CCl)Nc1ccc2c(c1)C(=O)c1ccccc1C2=O
satisfied

Say whether its growth is strictly beneath 70%. Entry: O=c1c2cc(Br)cc(Br)c2nc(-c2ccc(Cl)cc2)n1/N=C/c1cccc(F)c1
satisfied

Say whether its growth is strictly beneath 70%. Entry: c1ccc(-c2nnn(-c3ccccc3)n2)cc1
not satisfied

Say whether its growth is strictly beneath 70%. Entry: O=C(CCCCCCN1CC(=O)N2[C@@H](c3ccc(Cl)c(Cl)c3)c3[nH]c4ccccc4c3C[C@H]2C1=O)NO
satisfied

Say whether its growth is strictly beneath 70%. Entry: CCN(CC)c1cc(C)c(Cc2c(OC)ccc3ccccc23)cc1C
not satisfied

Say whether its growth is strictly beneath 70%. Entry: C=CCOc1ccc2c(C)cc(=O)oc2c1
not satisfied

Say whether its growth is strictly beneath 70%. Entry: OC(CCCCCCCCC(O)CN1CCc2ccccc2C1)CN1CCc2ccccc2C1 (stereo not given)
not satisfied

---

# Test system: UO-31 renal
# experiment-description: NCI-60 one-dose screen, 48 h (100 = growth as untreated, 0 = no growth, -100 = all killed)
# details: 10 µM unless noted
About 83,000 compounds went through this panel and 20% of them were active in at least one assay; those are over-represented in the sample as a whole.
Please use Fulfilled whenever growth is not below 70%, and Not fulfilled whenever it is.

Record O=C1CCCN1C1CCN2CCCc3cccc1c32 (configuration not stated) ; criterion: growth no lower than 70%. Met?
Fulfilled

Record O=P(O)(O)C(O)(Cc1cccnc1)P(=O)(O)O ; criterion: growth no lower than 70%. Met?
Fulfilled

Record COC(=O)c1ccc2c(c1)nc(-c1ccc(Cl)cc1)n2-c1cc(C(C)(C)C)[nH]n1 ; criterion: growth no lower than 70%. Met?
Not fulfilled

Record CCCCCCCCN=C(NCCCCCCCC)SCc1cccc2ccccc12 ; criterion: growth no lower than 70%. Met?
Not fulfilled

Record COc1ccccc1CNCCCN1C(=O)c2ccc3c4c(ccc(c24)C1=O)C(=O)N(CCCCNCCCN)C3=O ; criterion: growth no lower than 70%. Met?
Not fulfilled

Record CCOC(=O)c1cnc(SCC)nc1SC#N ; criterion: growth no lower than 70%. Met?
Fulfilled

Record CN1C(=O)C(C2=NNC(c3ccccc3C(=O)O)C2)C(=O)N(C)C1=O (configuration not stated) ; criterion: growth no lower than 70%. Met?
Fulfilled

Record CC(CN1CCN(CC(C)Nc2ccnc3cc(Cl)ccc23)CC1)Nc1ccnc2cc(Cl)ccc12 (configuration not stated) ; criterion: growth no lower than 70%. Met?
Not fulfilled

Record CC(SC(C)C(=O)N/N=C/c1cccc(Cl)c1)C(=O)N/N=C\c1cccc(Cl)c1 (configuration not stated) ; criterion: growth no lower than 70%. Met?
Fulfilled

Record CCOC(=O)C#Cc1c(C(=O)OCC)nnn1[C@@H]1O[C@H](COC(C)=O)[C@@H](OC(C)=O)[C@H]1OC(C)=O ; criterion: growth no lower than 70%. Met?
Not fulfilled

Record O=C1C=CN2C(=O)CC=CC2[C@@H]1O (some centres not stated) ; criterion: growth no lower than 70%. Met?
Fulfilled

Record O=[N+]([O-])c1ccc(N/N=C\c2ccc(O)cc2O)nc1 ; criterion: growth no lower than 70%. Met?
Not fulfilled

Record COc1ccc(CNc2c3ccccc3nc3ccc(OC)cc23)cc1 ; criterion: growth no lower than 70%. Met?
Not fulfilled

Record N/C(=C\C(=O)n1nc(-c2ccccc2)cc1N)c1ccccc1 ; criterion: growth no lower than 70%. Met?
Not fulfilled

Record CS(=O)(=O)c1ccc(C(=O)N/N=C/c2cccc3ccccc23)cc1 ; criterion: growth no lower than 70%. Met?
Fulfilled

Record C[Si](C)(C)C(c1ccccc1)c1ccccc1 ; criterion: growth no lower than 70%. Met?
Fulfilled

Record CNC(=O)c1c(NC(=O)c2cccc(C(F)(F)F)c2)sc2c1CCC(=O)C2 ; criterion: growth no lower than 70%. Met?
Not fulfilled

Record O=C(Cc1ccc([N+](=O)[O-])cc1)Oc1ccccc1 ; criterion: growth no lower than 70%. Met?
Fulfilled

Record O=c1c2cc(Br)cc(Br)c2nc(-c2ccc(Cl)cc2)n1/N=C/c1cccc(F)c1 ; criterion: growth no lower than 70%. Met?
Not fulfilled

Record COc1ccc2nc(-c3ccc(-c4noc(-c5ccc(Cl)cc5)n4)cc3)[nH]c2c1 ; criterion: growth no lower than 70%. Met?
Not fulfilled

---

# System: OVCAR-4 ovarian
# experiment-description: NCI-60 one-dose screen, 48 h (100 = growth as untreated, 0 = no growth, -100 = all killed)
# details: 10 µM unless noted
This is part of a sample that, as a whole, favours compounds with a hit. Of some 83,000 tested, about 20% had one in any assay.
Could you please report measured growth for the items listed next?
Express it in %; write the number only.

For the compound CCN1C(=O)N(CC)C2C1NC(=O)N2/N=C/C=C/c1ccccc1 (centres undefined) , what growth is on record?
64.4

For the compound COc1cc(/C=C/c2cc(/C=C/c3ccc(O)c(OC)c3)n(C(=O)c3ccccc3Br)n2)ccc1O , what growth is on record?
49.8

For the compound Cc1c(C(N)=O)sc2ncn(CC(=O)NN=C3CCCCC3)c(=O)c12 , what growth is on record?
110

For the compound COc1ccc(C(=O)OC2C(OC3C(O)COC(O[C@H]4C[C@H]5[C@@H]6CC=C7C[C@@H](O)CC[C@]7(C)[C@H]6CC[C@]5(C)[C@H]4[C@H](C)C(=O)CCC(C)C)C3OC(=O)C(C)C)OCC(O)C2O)cc1 (some centres undefined) , what growth is on record?
60.9

---

# Tested on: SK-OV-3 ovarian
# experiment-description: NCI-60 one-dose screen, 48 h (100 = growth as untreated, 0 = no growth, -100 = all killed)
# details: 10 µM unless noted
The panel holds about 83,000 compounds, 20% with a hit somewhere; the sample as a whole holds those more often. Calls of active or inactive are those of the source. Rule for the calls: active = growth percent below 10; inactive = the rest.
Could you please report measured growth for the items listed next?

For the molecule Cn1cnc([N+](=O)[O-])c1S(=O)(=O)Oc1ccccc1 , what growth is on record?
101% (inactive)

For the molecule FC(F)(F)c1cc(-c2nnc3n2N=C(Cl)CS3)cc(C(F)(F)F)c1 , what growth is on record?
99.9% (inactive)

For the molecule CCCCCCCCN(CCCCCCCC)C(=O)CCl , what growth is on record?
109% (inactive)

For the molecule COc1ccc(/C=N/NC(N)=S)c(OC)n1 , what growth is on record?
114% (inactive)

For the molecule COc1ccc2nc3cc(Cl)ccc3c(NC(=O)CSc3ccc(Cl)cc3)c2c1 , what growth is on record?
-94.2% (active)

For the molecule CC(C)(C)c1ccc(OC(=O)Nc2ccccc2)cc1 , what growth is on record?
110% (inactive)

For the molecule CC(C)(C)OC[C@@H]1N=C(c2ccc(Br)cc2)Nc2nc3ccccn3c2C1=O , what growth is on record?
64.3% (inactive)

For the molecule CCOC(=O)c1cc(N)nc2ccccc12 , what growth is on record?
101% (inactive)

For the molecule COC(=O)[C@@H](Cc1c[nH]c2ccccc12)NC(=O)/C=C/c1ccccc1 , what growth is on record?
2.1% (active)

For the molecule O=C(NO)c1ccc(CNc2cccc3nc(C4CC4)n(-c4ccccc4)c(=O)c23)cc1 , what growth is on record?
16% (inactive)

For the molecule CC(CN1CCN(CC(C)Nc2ccnc3cc(Cl)ccc23)CC1)Nc1ccnc2cc(Cl)ccc12 (stereo not drawn) , what growth is on record?
97.2% (inactive)

For the molecule CC(C)(C)[Si](C)(C)OC1[C@@H](CNC(N)=O)O[C@@H](n2cnc3c(NC(=O)Nc4ccccc4)ncnc32)[C@H]1O[Si](C)(C)C(C)(C)C (stereo partly drawn) , what growth is on record?
93.6% (inactive)

For the molecule O=[N+]([O-])c1ccc(N/N=C/c2ccccc2O)nc1 , what growth is on record?
32.7% (inactive)

For the molecule COc1cc(C2CC(c3ccc(C)cc3)=NN2C=O)ccc1Oc1nc2c(c(=O)n(C)c(=O)n2C)n1C (stereo not drawn) , what growth is on record?
124% (inactive)

For the molecule O=C(N/N=C\c1cc(Br)ccc1O)c1ccncc1 , what growth is on record?
38.3% (inactive)

For the molecule CN(C)c1nc(-c2cccs2)n2nc(-c3ccc(Cl)cc3)cc2n1 , what growth is on record?
-54.2% (active)

For the molecule N/C(=C\C(=O)n1nc(-c2ccccc2)cc1N)c1ccccc1 , what growth is on record?
65.5% (inactive)

For the molecule CCN1CCN(Cc2ccc(NC(=O)Nc3ccc(-n4ccc5c(NC(=O)c6ccccc6)nccc54)cc3)cc2C(F)(F)F)CC1 , what growth is on record?
62.7% (inactive)

For the molecule CCCCCCCCCCCC1=NC(C)(C)CN1CCO , what growth is on record?
97% (inactive)

For the molecule Cc1c2c(cc3c1[nH]c1ccccc13)C=NCC2 , what growth is on record?
96.5% (inactive)

For the molecule NC(=O)N/N=C\c1ccc([N+](=O)[O-])o1 , what growth is on record?
114% (inactive)

For the molecule Cc1ccc2c(C)c3c(ccc4ccccc43)c[n+]2c1 , what growth is on record?
83.8% (inactive)

For the molecule CN(C)c1ccc(/C=C\c2cccc[n+]2C)cc1 , what growth is on record?
42.2% (inactive)

For the molecule CCS(=O)(=O)Nc1cccc(Nc2c3cccc(C)c3nc3c(C)cccc23)c1OC , what growth is on record?
30.6% (inactive)

For the molecule CCN(CC)CCNC(=O)n1cc(-c2ccncc2)c(-c2ccc(Cl)c(OC)c2)n1 , what growth is on record?
75.5% (inactive)

For the molecule C[C@@H]1N=C(c2ccc3ccccc3c2)Nc2nc3ccccn3c2C1=O , what growth is on record?
40.5% (inactive)

For the molecule COc1ccccc1CNCCCN1C(=O)c2ccc3c4c(ccc(c24)C1=O)C(=O)N(CCCOCCCCOCCCN)C3=O , what growth is on record?
25.3% (inactive)

For the molecule C[C@@H]1CC2C3CCC4=CC(=O)C=C[C@]4(C)[C@@]3(Cl)[C@@H](O)C[C@]2(C)[C@@]1(OC(=O)c1ccco1)C(=O)CCl (stereo partly drawn) , what growth is on record?
54.1% (inactive)

For the molecule COc1cnc2c(c1)C(=O)c1c-2n(CCCN2CCNCC2)c(=O)c2cc(Cl)ccc12 , what growth is on record?
14.5% (inactive)

For the molecule CCCCOC(=O)c1cc(O)c(O)c(O)c1 , what growth is on record?
85.1% (inactive)

For the molecule O=C(O)C(CCc1ccccc1)NCc1ccccc1 (stereo not drawn) , what growth is on record?
98.5% (inactive)

For the molecule CCN1C(=O)C(C)C=C(C)C=C1C (stereo not drawn) , what growth is on record?
106% (inactive)

For the molecule Cc1ccc(Nc2cc(Cl)c([N+](=O)[O-])cc2[N+](=O)[O-])cc1 , what growth is on record?
83.5% (inactive)

For the molecule COc1ccc2c(c1)OC1=C(C(=O)OC1)C2c1cc(OC)c2c(c1)OCCO2 (stereo not drawn) , what growth is on record?
-2.33% (active)

For the molecule c1cc(C2CCCCC2)ccc1-c1cnc2nonc2n1 , what growth is on record?
33.5% (inactive)

For the molecule COc1ccc2c(c1)sc1nc(-c3ccccc3)c(-c3cccc4ccccc34)n12 , what growth is on record?
10.5% (inactive)

For the molecule CC(C)N(C(=S)SSC(=S)N(C(C)C)C(C)C)C(C)C , what growth is on record?
112% (inactive)

For the molecule COCc1nc(NS(=O)(=O)c2ccc(N)cc2)nc(C)c1Br , what growth is on record?
96.9% (inactive)

For the molecule CN(C)c1nc(-c2cccs2)n2nc(-c3ccco3)cc2n1 , what growth is on record?
90.2% (inactive)

For the molecule COc1cnc2c(c1)C(=O)c1c-2n(CCCNC(C)C)c(=O)c2cc(Cl)ccc12 , what growth is on record?
-5.05% (active)

For the molecule CS(=O)(=O)c1ccc(C(=O)Nc2ccc(Cl)c(-c3ccccn3)c2)c(Cl)c1 , what growth is on record?
19.2% (inactive)

For the molecule NC(=S)N1N=C(c2ccc(Cl)cc2)CC1c1cc2ccccc2[nH]c1=O (stereo not drawn) , what growth is on record?
104% (inactive)

For the molecule CSC1=N/C(=C\c2cccc(OCc3ccc(Cl)cc3)c2)C(=O)N1 , what growth is on record?
98.5% (inactive)
